As shown below, each of these binders has a reported MFI value.
Biological target: T1, full length human PD-L1 (amino acids 1 to 290 of NP_054862.1) on transfected cells (human, UniProt Q9NZQ7 19-290)
T1 construct: also called HEK293/hPD-L1; Raji/hPD-L1
T1 sequence (Q9NZQ7 19-290 limits assumed): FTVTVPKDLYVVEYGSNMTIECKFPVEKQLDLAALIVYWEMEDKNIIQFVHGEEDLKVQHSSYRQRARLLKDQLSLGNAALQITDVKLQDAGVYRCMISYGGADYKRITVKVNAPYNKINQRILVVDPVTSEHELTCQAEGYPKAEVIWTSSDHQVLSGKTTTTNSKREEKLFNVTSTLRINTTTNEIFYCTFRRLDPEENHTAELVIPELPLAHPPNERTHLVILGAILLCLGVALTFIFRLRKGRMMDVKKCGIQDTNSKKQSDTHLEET
Assay: FACS, 100 nM antibody, HEK293/hPD-L1 cells
Give the quantity in MFI, number only.

Let me know recorded MFI for H1H9329P (antibody, V domains shown, human IgG1 Fc (H1H prefix)) VH: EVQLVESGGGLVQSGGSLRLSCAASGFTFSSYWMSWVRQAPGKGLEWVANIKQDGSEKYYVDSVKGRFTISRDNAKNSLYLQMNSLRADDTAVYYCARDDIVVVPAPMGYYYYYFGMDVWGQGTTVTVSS VL: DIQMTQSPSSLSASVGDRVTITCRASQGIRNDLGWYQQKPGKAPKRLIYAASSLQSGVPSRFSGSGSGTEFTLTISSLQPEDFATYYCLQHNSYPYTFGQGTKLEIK , thanks.
282000
